Entries and their EC50
Target: Stimulator of interferon genes protein (Homo sapiens, UniProt Q86WV6)
Sequence (Q86WV6 whole entry): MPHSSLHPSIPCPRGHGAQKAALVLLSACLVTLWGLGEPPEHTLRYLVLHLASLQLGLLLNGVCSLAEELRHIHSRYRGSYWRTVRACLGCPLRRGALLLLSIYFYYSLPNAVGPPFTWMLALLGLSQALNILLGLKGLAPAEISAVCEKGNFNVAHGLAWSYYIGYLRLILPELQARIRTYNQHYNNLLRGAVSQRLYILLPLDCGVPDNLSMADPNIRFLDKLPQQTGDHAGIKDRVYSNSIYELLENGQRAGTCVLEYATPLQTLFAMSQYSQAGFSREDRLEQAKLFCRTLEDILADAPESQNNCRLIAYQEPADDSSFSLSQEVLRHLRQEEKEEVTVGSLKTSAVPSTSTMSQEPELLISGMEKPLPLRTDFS
Assay: Activation of recombinant human wild-type STING expressed in 293T cells measured after 30 mins in presence of digitonin A by bright Glo-luciferase reporter gene assay
Type: cell-based
Respond with the bare value in nM.

{"compound": "Nc1nc2c(ncn2[C@@H]2O[C@@H]3COP(=O)(O)O[C@H]4[C@@H](O)[C@H](n5cnc6c(=S)[nH]cnc65)O[C@@H]4COP(=O)(O)O[C@@H]2[C@@H]3O)c(=O)[nH]1", "property label": "EC50", "measurement unit": "nM", "endpoint value": 300}
{"compound": "Nc1nc(N)c2ncn([C@@H]3O[C@@H]4COP(=O)(O)O[C@@H]5[C@H](O)[C@@H](COP(=O)(O)O[C@H]4[C@H]3F)O[C@H]5n3cnc4c(=O)[nH]c(N)nc43)c2n1", "property label": "EC50", "measurement unit": "nM", "endpoint value": 20}
{"compound": "Nc1nc2c(ncn2[C@@H]2O[C@@H]3COP(=O)(O)O[C@H]4[C@@H](O)[C@H](n5cnc6c(O)nc(O)nc65)O[C@@H]4COP(=O)(O)O[C@@H]2[C@@H]3O)c(=O)[nH]1", "property label": "EC50", "measurement unit": "nM", "endpoint value": 1800}
{"compound": "CSc1ncnc2c1ncn2[C@@H]1O[C@@H]2COP(=O)(O)O[C@@H]3[C@H](O)[C@@H](COP(=O)(O)O[C@H]2[C@H]1O)O[C@H]3n1cnc2c(=O)[nH]c(N)nc21", "property label": "EC50", "measurement unit": "nM", "endpoint value": 10}
{"compound": "Nc1ncnc2c1ncn2[C@@H]1O[C@@H]2COP(=O)(O)O[C@H]3[C@@H](O)[C@H](n4cnc5c(N)ncnc54)O[C@@H]3COP(=O)(O)O[C@H]2[C@H]1O", "property label": "EC50", "measurement unit": "nM", "endpoint value": 300}
{"compound": "Nc1ncc2ncn([C@@H]3O[C@@H]4COP(=O)(O)O[C@@H]5[C@H](O)[C@@H](COP(=O)(O)O[C@H]4[C@H]3O)O[C@H]5n3cnc4c(=O)[nH]c(N)nc43)c2n1", "property label": "EC50", "measurement unit": "nM", "endpoint value": 20}
{"compound": "Nc1nc2c(ncn2[C@@H]2O[C@@H]3COP(=O)(O)O[C@H]4[C@@H](N)[C@H](n5cnc6c(N)ncnc65)O[C@@H]4COP(=O)(O)O[C@@H]2[C@@H]3O)c(=O)[nH]1", "property label": "EC50", "measurement unit": "nM", "endpoint value": 20}
{"compound": "NC(=O)c1ncn([C@@H]2O[C@@H]3COP(=O)(O)O[C@H]4[C@@H](O)[C@H](n5cnc6c(N)ncnc65)O[C@@H]4COP(=O)(O)O[C@@H]2[C@@H]3O)c1N", "property label": "EC50", "measurement unit": "nM", "endpoint value": 830}
{"compound": "Nc1nc2c([C@@H]3O[C@@H]4COP(=O)(O)O[C@H]5[C@@H](O)[C@H](n6cnc7c(N)ncnc76)O[C@@H]5COP(=O)(O)O[C@@H]3[C@@H]4O)scc2c(=O)[nH]1", "property label": "EC50", "measurement unit": "nM", "endpoint value": 110}
{"compound": "Nc1nc2c(ncn2[C@@H]2O[C@@H]3COP(=O)(S)O[C@H]4[C@@H](O)[C@H](n5cnc6c(N)ncnc65)O[C@@H]4COP(=O)(O)O[C@@H]2[C@@H]3O)c(=O)[nH]1 (stereo partly drawn)", "property label": "EC50", "measurement unit": "nM", "endpoint value": 60}

Q. Consider the compound Nc1nc2c(ncn2[C@@H]2O[C@@H]3COP(=O)(O)O[C@H]4[C@@H](O)[C@H](n5cnc6c(=O)[nH]cnc65)O[C@@H]4COP(=O)(O)O[C@@H]2[C@@H]3O)c(=O)[nH]1 and give its recorded EC50.
A. 50

Q. Assign EC50 to the following record: NC(=O)c1ncn([C@@H]2O[C@@H]3COP(=O)(O)O[C@@H]4[C@H](O)[C@@H](COP(=O)(O)O[C@H]3[C@H]2O)O[C@H]4n2cnc3c(=O)[nH]c(N)nc32)c1N
A. 320

Q. Output EC50 of Nc1nc2c(ncn2[C@@H]2O[C@@H]3COP(=O)(O)O[C@H]4[C@@H](O)[C@H](n5nnc6c(N)ncnc65)O[C@@H]4COP(=O)(O)O[C@@H]2[C@@H]3O)c(=O)[nH]1
A. 230

Q. Quote EC50 reported for CSc1nc(N)nc2c1ncn2[C@@H]1O[C@@H]2COP(=O)(O)O[C@@H]3[C@H](O)[C@@H](COP(=O)(O)O[C@H]2[C@H]1O)O[C@H]3n1cnc2c(=O)[nH]c(N)nc21 please.
A. 300

Q. For the compound Nc1nc2c(ncn2[C@@H]2O[C@@H]3COP(=O)(O)O[C@H]4[C@@H](F)[C@H](n5cnc6c(N)nc(F)nc65)O[C@@H]4COP(=O)(O)O[C@@H]2[C@@H]3O)c(=O)[nH]1 , report EC50.
A. 20

Q. Consider the compound CNc1ncnc2c1ncn2[C@@H]1O[C@@H]2COP(=O)(O)O[C@@H]3[C@H](O)[C@@H](COP(=O)(O)O[C@H]2[C@H]1O)O[C@H]3n1cnc2c(=O)[nH]c(N)nc21 and give its recorded EC50.
A. 20

Q. Quick one: give measured EC50 for Nc1nc2c(ncn2[C@@H]2O[C@@H]3COP(=O)(O)O[C@H]4C[C@H](n5cnc6c(N)nc(F)nc65)O[C@@H]4COP(=O)(O)O[C@@H]2[C@@H]3F)c(=O)[nH]1
A. 50

Q. Answer with the recorded EC50 for the compound listed here: Nc1nc2c(ncn2[C@@H]2O[C@@H]3CO[P@](=O)(O)O[C@H]4[C@@H](O)[C@H](n5cnc6c(=O)[nH]c(N)nc65)O[C@@H]4CO[P@](=O)(O)O[C@H]3[C@H]2O)c(=O)[nH]1
A. 4500

Q. Respond only with EC50 recorded for Cn1c(N)nc2c(ncn2[C@@H]2O[C@@H]3COP(=O)(O)O[C@H]4[C@@H](O)[C@H](n5cnc6c(N)ncnc65)O[C@@H]4COP(=O)(O)O[C@@H]2[C@@H]3O)c1=O
A. 20

Q. Return reported EC50. Input compound: Nc1nc2c(ncn2[C@@H]2O[C@@H]3COP(=O)(O)O[C@H]4[C@H](O)[C@H](n5cnc6c(N)nc(F)nc65)O[C@@H]4COP(=O)(O)O[C@@H]2[C@@H]3O)c(=O)[nH]1
A. 200

Q. Give reported EC50 value for Nc1nc2c(ncn2[C@@H]2O[C@@H]3COP(=O)(O)O[C@H]4C[C@H](n5cnc6c(N)nc(Cl)nc65)O[C@@H]4COP(=O)(O)O[C@@H]2[C@@H]3O)c(=O)[nH]1
A. 70

Q. For the compound Nc1nc2c(ncn2[C@@H]2O[C@@H]3COP(=O)(O)O[C@@H]4[C@H](O)[C@@H](COP(=O)(O)O[C@@H]2[C@@H]3O)O[C@H]4n2cnc3c(N)ncnc32)c(=O)[nH]1 , give its measured EC50 value.
A. 30

Q. Output EC50 of Nc1nc2c(ccn2[C@@H]2O[C@@H]3COP(=O)(O)O[C@H]4[C@@H](O)[C@H](n5cnc6c(N)ncnc65)O[C@@H]4COP(=O)(O)O[C@@H]2[C@@H]3O)c(=O)[nH]1
A. 40
